src = patent US9328106B2

Hi there, I'd appreciate the recorded pKi for every entry that follows.
- TEST_SYSTEM: PIM1 (Homo sapiens (Human), UniProt P11309)
- Sequence (P11309 whole entry): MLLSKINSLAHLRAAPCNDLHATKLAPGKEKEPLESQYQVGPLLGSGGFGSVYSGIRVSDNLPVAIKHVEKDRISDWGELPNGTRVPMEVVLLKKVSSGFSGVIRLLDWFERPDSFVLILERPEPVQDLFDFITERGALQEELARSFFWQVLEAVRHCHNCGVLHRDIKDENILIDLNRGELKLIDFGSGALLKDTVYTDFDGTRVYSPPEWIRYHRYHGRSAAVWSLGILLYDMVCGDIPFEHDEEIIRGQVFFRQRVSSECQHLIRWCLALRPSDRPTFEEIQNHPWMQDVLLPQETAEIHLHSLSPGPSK
- PROTOCOL_DESCRIPTION: biochemical
- Format: biochemical
- CONDITIONS_USED: 20 pM PIM1, 1 μM FAM-peptide, 10 μM ATP, 90 minutes at room temperature; read-out: PIM1 LC3K (KI)
Give bare numbers, as −log10 of the molar value.

Before answering, review these 6 worked examples.
{"columns": ["SMILES_REPR", "pKi"],
 "data": [
  ["Cn1ncc(NC(=O)c2csc(-c3c(F)cc(C4CC4)cc3F)n2)c1[C@@H]1CC[C@@H](N)[C@H](F)CO1", 11.05],
  ["Cn1ncc(NC(=O)c2nc(C3CCCC3)sc2N)c1[C@@H]1CC[C@@H](N)[C@H](F)CO1", 9.34],
  ["Cn1ncc(NC(=O)c2ccc(F)c(-c3c(F)cc(C4(F)COC4)cc3F)n2)c1[C@@H]1CC[C@@H](N)[C@H](F)CO1", 10.66],
  ["Cn1ncc(NC(=O)c2csc(-n3ncc4c3CCCC4)n2)c1[C@@H]1CC[C@@H](N)[C@H](F)CO1", 10.70],
  ["CO[C@H]1CO[C@H](c2c(NC(=O)c3nc(-c4ccccc4F)sc3N)cnn2C)CC[C@H]1N", 10.84],
  ["Cn1ncc(NC(=O)c2ccc(F)c(-c3c(F)cc(C(C)(C)O)cc3F)n2)c1[C@@H]1CC[C@@H](N)[C@H](F)CO1", 10.96]
]}

Could you now consider this next compound?
Entry under review: "Cn1ncc(NC(=O)c2csc(-c3c(F)cccc3Cl)n2)c1[C@@H]1CC[C@@H](N)[C@H](F)CO1" . Reported pKi? 9.66
